# assayTarget: human Fatty Acid Synthase (Homo sapiens, UniProt P49327)
# Construct: made in house
# Sequence (P49327 whole entry): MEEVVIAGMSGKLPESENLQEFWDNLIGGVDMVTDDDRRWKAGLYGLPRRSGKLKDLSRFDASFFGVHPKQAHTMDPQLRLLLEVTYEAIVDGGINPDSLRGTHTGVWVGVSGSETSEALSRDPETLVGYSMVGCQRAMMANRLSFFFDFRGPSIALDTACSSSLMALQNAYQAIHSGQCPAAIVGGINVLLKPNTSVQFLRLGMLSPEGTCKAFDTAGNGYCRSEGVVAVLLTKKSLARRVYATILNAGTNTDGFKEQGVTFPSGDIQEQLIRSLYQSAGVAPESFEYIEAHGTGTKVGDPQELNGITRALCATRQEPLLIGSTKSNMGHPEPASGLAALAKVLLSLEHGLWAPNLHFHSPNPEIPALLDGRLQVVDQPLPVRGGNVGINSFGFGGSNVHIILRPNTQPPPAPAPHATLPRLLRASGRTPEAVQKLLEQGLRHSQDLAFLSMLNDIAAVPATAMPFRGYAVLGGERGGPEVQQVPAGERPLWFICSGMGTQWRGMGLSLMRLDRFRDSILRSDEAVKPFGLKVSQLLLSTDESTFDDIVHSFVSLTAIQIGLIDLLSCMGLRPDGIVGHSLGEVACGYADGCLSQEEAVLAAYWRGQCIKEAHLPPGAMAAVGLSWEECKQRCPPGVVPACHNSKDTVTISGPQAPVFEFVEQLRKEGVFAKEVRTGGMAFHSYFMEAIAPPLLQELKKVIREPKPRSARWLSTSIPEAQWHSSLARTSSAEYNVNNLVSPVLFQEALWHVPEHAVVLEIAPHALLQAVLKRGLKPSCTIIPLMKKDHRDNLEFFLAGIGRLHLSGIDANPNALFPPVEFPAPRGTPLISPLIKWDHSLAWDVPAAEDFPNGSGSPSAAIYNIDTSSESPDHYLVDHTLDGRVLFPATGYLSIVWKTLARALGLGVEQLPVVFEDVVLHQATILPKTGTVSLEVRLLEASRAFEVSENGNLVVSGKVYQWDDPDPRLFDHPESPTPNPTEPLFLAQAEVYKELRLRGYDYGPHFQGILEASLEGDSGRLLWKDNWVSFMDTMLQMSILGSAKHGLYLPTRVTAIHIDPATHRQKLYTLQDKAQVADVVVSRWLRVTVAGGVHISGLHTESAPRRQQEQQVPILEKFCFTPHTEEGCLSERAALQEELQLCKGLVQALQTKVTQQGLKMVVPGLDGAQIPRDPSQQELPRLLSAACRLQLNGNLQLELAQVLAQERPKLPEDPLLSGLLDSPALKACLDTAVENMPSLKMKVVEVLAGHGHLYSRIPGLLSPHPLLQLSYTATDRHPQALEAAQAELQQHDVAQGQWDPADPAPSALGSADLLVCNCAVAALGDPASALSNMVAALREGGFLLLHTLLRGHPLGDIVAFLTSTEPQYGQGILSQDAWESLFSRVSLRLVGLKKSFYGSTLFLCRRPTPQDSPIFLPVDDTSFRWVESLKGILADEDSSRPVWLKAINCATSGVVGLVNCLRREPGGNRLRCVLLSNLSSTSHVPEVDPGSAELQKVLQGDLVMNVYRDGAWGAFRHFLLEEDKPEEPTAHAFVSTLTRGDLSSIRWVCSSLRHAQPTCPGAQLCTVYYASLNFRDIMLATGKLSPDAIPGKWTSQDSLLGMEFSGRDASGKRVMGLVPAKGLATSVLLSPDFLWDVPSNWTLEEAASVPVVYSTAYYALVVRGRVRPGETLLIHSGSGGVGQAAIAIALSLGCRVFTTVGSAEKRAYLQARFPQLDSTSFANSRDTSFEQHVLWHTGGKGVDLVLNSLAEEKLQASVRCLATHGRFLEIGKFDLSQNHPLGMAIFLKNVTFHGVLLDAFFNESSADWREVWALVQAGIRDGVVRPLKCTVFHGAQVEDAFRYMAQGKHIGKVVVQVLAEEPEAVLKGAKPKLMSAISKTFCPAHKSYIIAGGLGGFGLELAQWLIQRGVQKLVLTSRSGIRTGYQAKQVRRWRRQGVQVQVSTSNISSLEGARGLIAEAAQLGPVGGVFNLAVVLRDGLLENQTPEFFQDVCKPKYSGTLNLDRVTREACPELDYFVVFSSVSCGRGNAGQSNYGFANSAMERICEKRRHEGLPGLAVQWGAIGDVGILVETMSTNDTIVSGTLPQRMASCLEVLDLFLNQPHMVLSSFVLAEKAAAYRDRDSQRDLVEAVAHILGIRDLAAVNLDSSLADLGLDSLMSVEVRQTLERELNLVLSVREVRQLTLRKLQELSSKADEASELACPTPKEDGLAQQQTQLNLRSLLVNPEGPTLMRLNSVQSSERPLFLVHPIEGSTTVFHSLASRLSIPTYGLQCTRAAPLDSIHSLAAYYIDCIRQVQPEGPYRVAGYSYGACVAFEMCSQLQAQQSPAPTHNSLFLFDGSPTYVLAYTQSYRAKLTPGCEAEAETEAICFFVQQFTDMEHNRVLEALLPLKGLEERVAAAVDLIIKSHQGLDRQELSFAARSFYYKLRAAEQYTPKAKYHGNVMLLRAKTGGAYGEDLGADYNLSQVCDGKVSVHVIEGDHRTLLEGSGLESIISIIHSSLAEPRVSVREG
# experiment: Human FAS enzyme assay (decrease in NADPH fluorescence)
# Format: biochemical
# details: % inhibition at a concentration of 100 μmolar

molecule | inhibition at 100 µM (%)
Cc1ccc(C(=O)N2CCC(c3ccc(C#N)cc3)CC2)cc1NC(=O)NCCCCO [Example 185] | 92.6
Cc1ccc(C(=O)N2CCC(c3ccc(C#N)cc3)CC2)cc1NC(=O)NCCCN(CCO)CCO [Example 141] | 82.1
Cc1ccc(NC(=O)NCc2ccc(C#N)cc2)cc1C(=O)N1CCC(c2ccc(C#N)cc2)CC1 [Example 378] | 73.2
Cc1ccc(C(=O)N2CCC(c3ccc(C#N)cc3)CC2)cc1NC(=O)NC(C)(C)CNC(=O)c1cccnc1 [Example 93] | 90.1
Cc1ccc(C(=O)N2CCC(c3ccc(C#N)cc3)CC2)cc1NC(=O)NC1Cc2ccncc2NC1=O (centres unmarked) [Example 99] | 90.2
Cc1ccc(C(=O)N2CCC(c3ccc(C#N)cc3)CC2)cc1NC(=O)N1CCCC1 [Example 10] | 83.5
CSCCCNC(=O)Nc1cc(C(=O)N2CCC(c3ccc(C#N)cc3)CC2)ccc1C [Example 157] | 92.7
Cc1ccc(C(=O)N2CCC(c3ccc(C#N)cc3)CC2)cc1NC(=O)NC1CN(C(=O)OC(C)(C)C)C1 [Example 97] | 95.5
CCS(=O)(=O)N1CC[C@H](NC(=O)Nc2cc(C(=O)N3CCC(c4ccc(C#N)cc4)CC3)ccc2C)C1 [Example 222] | 90.7
COCCNC(=O)Nc1ccc(C)c(C(=O)N2CCC(c3ccc(C#N)cc3)CC2)c1 [Example 417] | 85.1
Cc1ccc(C(=O)N2CCC(c3ccc(C#N)cc3)CC2)cc1NC(=O)N1CC(NS(C)(=O)=O)C1 [Example 313] | 90.5
Cc1ccc(C(=O)N2CCC(c3ccc(C#N)cc3)CC2)cc1NC(=O)NCCNc1ncnc2[nH]cnc12 [Example 95] | 94.4
C#CCNC(=O)Nc1cc(C(=O)N2CCC(c3ccc(C#N)cc3)CC2)ccc1C [Example 43] | 88.3
COCCNC(=O)Nc1cc(C(=O)N2CCC(c3ccc(C#N)cc3)CC2)ccc1C [Example 152] | 95.1
Cc1ccc(C(=O)N2CCC(c3ccc(C#N)cc3)CC2)cc1NC(=O)NCc1cccc(N)c1 [Example 85] | 93.6
CC(=O)N1CCC(NC(=O)Nc2cc(C(=O)N3CCC(c4ccc(C#N)cc4)CC3)ccc2C)CC1 [Example 282] | 95
Cc1ccc(C(=O)N2CCC(O)(c3ccc(Br)cc3)CC2)cc1NC(=O)NCc1ccccc1 [Example 40] | 71.5
Cc1ccc(C(=O)N2CCC(c3ccc(C#N)cc3)CC2)cc1NC(=O)NC1CCNCC1 [Example 211] | 87.4
CC(=O)N1CC(NC(=O)Nc2cc(C(=O)N3CCC(c4ccc(C#N)cc4)CC3)ccc2C)C1 [Example 310] | 94.5
Cc1ccc(C(=O)N2CCC(c3ccc(F)cc3)CC2)cc1NC(=O)NCCN(C)C(=O)OC(C)(C)C [Example 347] | 86.3
CSCCNC(=O)Nc1cc(C(=O)N2CCC(c3ccc(C#N)cc3)CC2)ccc1C [Example 156] | 92.2
CCc1ccc(C(=O)N2CCC(c3ccc(C#N)cc3)CC2)cc1NC(=O)NCC1COCCO1 (racemic) [Example 259] | 102
Cc1ccc(NC(=O)NCc2ccccc2)cc1C(=O)N1CCC(c2ccc(C#N)cc2)CC1 [Example 7] | 79.1
CC(C)NC(=O)Nc1cc(C(=O)N2CCC(c3ccc(C#N)cc3)CC2)ccc1C#N [Example 22] | 86.8
CCCCNC(=O)NCCNC(=O)Nc1cc(C(=O)N2CCC(c3ccc(C#N)cc3)CC2)ccc1C [Example 172] | 91.8
Cc1ccc(C(=O)N2CCC(c3ccc(C#N)cc3)CC2)cc1NC(=O)NC(CO)CO [Example 186] | 86.4
CC(=O)N1CCCC(NC(=O)Nc2cc(C(=O)N3CCC(c4ccc(C#N)cc4)CC3)ccc2C)C1 (centres unmarked) [Example 390] | 90.6
Cc1ccc(C(=O)N2CCC(c3ccc(C#N)cc3)CC2)cc1NC(=O)NC1CN(C(=O)C(C)C)C1 [Example 301] | 96.6
Cc1ccc(C(=O)N2CCC(c3ccc(C#N)cc3)CC2)cc1NC(N)=O [Example 366] | 101
Cc1ccc(C(=O)N2CCC(c3ccc(C#N)cc3)CC2)cc1NC(=O)NCC(O)COc1ccccc1Cl (centres unmarked) [Example 196] | 91.7
CNC(=O)Nc1ccc(C)c(C(=O)N2CCC(c3ccc(C#N)cc3)CC2)c1 [Example 18] | 75.9
Cc1ccc(C(=O)N2CCC(c3ccc(C#N)cc3)CC2)cc1NC(=O)NCc1cnccn1 [Example 293] | 92.5

---

# assayTarget: human Fatty Acid Synthase (Homo sapiens)
# Construct: made in house
# experiment: Human FAS enzyme assay (decrease in NADPH fluorescence)
# Type: biochemical
# details: % inhibition at a concentration of 100 μmolar
# inhibition at 100 µM >= 90% gives YES, anything below gives NO

compound | categoryLabel
CCC(=O)N1CC[C@H](NC(=O)Nc2cc(C(=O)N3CCC(c4ccc(C#N)cc4)CC3)ccc2C)C1 [Example 220] | YES
Cc1ccc(C(=O)N2CCC(c3ccc(C#N)cc3)CC2)cc1NC(=O)NC1CN(S(=O)(=O)N(C)C)C1 [Example 303] | YES
Cc1ccc(NC(=O)N[C@H](C)c2ccccc2)cc1C(=O)N1CCC(c2ccc(C#N)cc2)CC1 [Example 37] | NO
Cc1ccc(NC(=O)NCc2cccnc2)cc1C(=O)N1CCC(c2ccc(C#N)cc2)CC1 [Example 25] | NO
CC(=O)NCC(C)NC(=O)Nc1cc(C(=O)N2CCC(c3ccc(C#N)cc3)CC2)ccc1C (stereo not drawn) [Example 232] | YES
Cc1ccc(C(=O)N2CCC(c3ccc(C#N)cc3)CC2)cc1NC(=O)NCCNC(=O)c1ccccn1 [Example 91] | YES
Cc1ccc(C(=O)N2CCC(c3ccc(C#N)cc3)CC2)cc1NC(=O)N[C@H]1CCCC[C@@H]1NS(C)(=O)=O (relative stereo) [Example 315] | YES
Cc1ccc(C(=O)N2CCC(c3ccc(C#N)cc3)CC2)cc1NC(=O)NCC(O)CO (stereo not drawn) [Example 184] | NO
Cc1ccc(C(=O)N2CCC(c3ccc(C#N)cc3)CC2)cc1NC(=O)NCc1ncccc1C [Example 250] | YES
Cc1ccc(C(=O)N2CCC(c3ccc(C#N)cc3)CC2)cc1NC(=O)NC(C)CO (stereo not drawn) [Example 182] | YES
Cc1ccc(C(=O)N2CCC(c3ccc(C#N)cc3)CC2)cc1NC(=O)NC1CCN(Cc2ccccc2)CC1 [Example 41] | YES
Cc1ccc(NC(=O)NCc2cccc(C#N)c2)cc1C(=O)N1CCC(c2ccc(C#N)cc2)CC1 [Example 47] | NO

---

# assayTarget: human Fatty Acid Synthase (Homo sapiens)
# Construct: made in house
# experiment: Human FAS enzyme assay (decrease in NADPH fluorescence)
# Assay type: biochemical
# details: % inhibition at a concentration of 100 μmolar
Examples of compounds with documented inhibition at 100 µM follow.

compound | assayTarget | inhibition at 100 µM [%]
Cc1ccc(C(=O)N2CCC(c3ccc(C#N)cc3)CC2)cc1NC(=O)NCC1CCCCO1 (stereo not shown) | human Fatty Acid Synthase (Homo sapiens) | 94.7
CCOC(=O)N1CCC(NC(=O)Nc2cc(C(=O)N3CCC(c4ccc(C#N)cc4)CC3)ccc2C)CC1 | human Fatty Acid Synthase (Homo sapiens) | 89.5
CCCCNC(=O)Nc1cc(C(=O)N2CCC(c3ccc(C#N)cc3)CC2)ccc1C | human Fatty Acid Synthase (Homo sapiens) | 95.6
COc1ccc(C(=O)N2CCC(c3ccc(C#N)cc3)CC2)cc1NC(=O)NC(C)C | human Fatty Acid Synthase (Homo sapiens) | 79.6
Cc1ccc(C(=O)N2CCC(c3ccc(C#N)cc3)CC2)cc1NC(=O)NCc1ccccc1 | human Fatty Acid Synthase (Homo sapiens) | 95.5
Cc1ccc(C(=O)N2CCC(c3ccc(C#N)cc3)CC2)cc1NC(=O)NCCNC(N)=O | human Fatty Acid Synthase (Homo sapiens) | 91.5
CCS(=O)(=O)N(C)CCNC(=O)Nc1cc(C(=O)N2CCC(c3ccc(C#N)cc3)CC2)ccc1C | human Fatty Acid Synthase (Homo sapiens) | 93.9
Cc1ccc(C(=O)N2CCC(c3ccc(C#N)cc3)CC2)cc1NC(=O)NCCN(C)S(=O)(=O)C(C)C | human Fatty Acid Synthase (Homo sapiens) | 89.8
Cc1ccc(C(=O)N2CCC(c3ccc(C#N)cc3)CC2)cc1NC(=O)NCC(=O)NC(C)C | human Fatty Acid Synthase (Homo sapiens) | 96.3
Cc1ccc(C(=O)N2CCC(c3ccc(C#N)cc3)CC2)cc1NC(=O)N[C@H]1CCNC1 | human Fatty Acid Synthase (Homo sapiens) | 88.6
COCc1ccc(C(=O)N2CCC(c3ccc(C#N)cc3)CC2)cc1NC(=O)NC(C)C | human Fatty Acid Synthase (Homo sapiens) | 82.5
Cc1ccc(NC(=O)N[C@H]2CC[C@H](O)CC2)cc1C(=O)N1CCC(c2ccc(C#N)cc2)CC1 | human Fatty Acid Synthase (Homo sapiens) | 98.1
Cc1ccc(C(=O)N2CCC(c3ccc(C#N)cc3)CC2)cc1NC(=O)NCCN(C)C | human Fatty Acid Synthase (Homo sapiens) | 79.3
Cc1ccc(C(=O)N2CCC(c3ccc(C#N)cc3)CC2)cc1NC(=O)NCc1cn(C)nc1C | human Fatty Acid Synthase (Homo sapiens) | 89
Cc1ccc(C(=O)N2CCC(c3ccc(C#N)cc3)CC2)cc1NC(=O)N[C@H]1CC[C@H](NS(C)(=O)=O)C1 | human Fatty Acid Synthase (Homo sapiens) | 94.4
Cc1ccc(C(=O)N2CCC(c3ccc(C#N)cc3)CC2)cc1NC(=O)NCc1ccc(C#N)cc1 | human Fatty Acid Synthase (Homo sapiens) | 91.8
CCOCCCNC(=O)Nc1ccc(C)c(C(=O)N2CCC(c3ccc(C#N)cc3)CC2)c1 | human Fatty Acid Synthase (Homo sapiens) | 90.8
Cc1ccc(C(=O)N2CCC(c3ccc(C#N)cc3)CC2)cc1NC(=O)NCCC(=O)N1CCOCC1 | human Fatty Acid Synthase (Homo sapiens) | 93
Cc1ccc(C(=O)N2CCC(c3ccc(C#N)cc3)CC2)cc1NC(=O)NC1CCN(C(=O)C(C)C)CC1 | human Fatty Acid Synthase (Homo sapiens) | 101
Cc1ccc(NC(=O)NC(C)(C)C)cc1C(=O)N1CCC(c2ccc(C#N)cc2)CC1 | human Fatty Acid Synthase (Homo sapiens) | 68.4
Cc1ccc(C(=O)N2CCC(c3ccc(C#N)cc3)CC2)cc1NC(=O)NC(C(=O)O)C(C)C (stereo not shown) | human Fatty Acid Synthase (Homo sapiens) | 79
Cc1ccc(C(=O)N2CCC(c3ccc(C#N)cc3)CC2)cc1NC(=O)N1CC(O)C1 | human Fatty Acid Synthase (Homo sapiens) | 96.5
Cc1ccc(C(=O)N2CCC(c3ccc(C#N)cc3)CC2)cc1NC(=O)NC1CCC(C(=O)O)CC1 (stereo not shown) | human Fatty Acid Synthase (Homo sapiens) | 93.4
Cc1ccc(C(=O)N2CCC(c3ccc(C#N)cc3)CC2)cc1NC(=O)NCCCN1CCCC1 | human Fatty Acid Synthase (Homo sapiens) | 89.6
Cc1ccc(C(=O)N2CCC(c3ccc(C(F)(F)F)cc3)CC2)cc1NC(=O)NCCNS(=O)(=O)N(C)C | human Fatty Acid Synthase (Homo sapiens) | 96
Cc1ccc(C(=O)N2CCC(c3ccc(C#N)cc3)CC2)cc1NC(=O)N1CCN(C(=O)N(C)C)CC1 | human Fatty Acid Synthase (Homo sapiens) | 96.5
Cc1ccc(C(=O)N2CCC(c3ccc(C#N)cc3)CC2)cc1NC(=O)NC1CCCNC1 (stereo not shown) | human Fatty Acid Synthase (Homo sapiens) | 99.6
COc1ccc(C2CCN(C(=O)c3ccc(C)c(NC(=O)NC(C)C)c3)CC2)cc1 | human Fatty Acid Synthase (Homo sapiens) | 86.7
Cc1ccc(C(=O)N2CCC(c3ccc(C#N)cc3)CC2)cc1NC(=O)NC1CCCCC1O (racemic) | human Fatty Acid Synthase (Homo sapiens) | 90.4
Cc1ccc(C(=O)N2CCC(c3ccc(C#N)cc3)CC2)cc1NC(=O)NCCc1cccs1 | human Fatty Acid Synthase (Homo sapiens) | 93.4
Cc1ccc(C(=O)N2CCC(c3ccc(C#N)cc3)CC2)cc1NC(=O)NCCCO | human Fatty Acid Synthase (Homo sapiens) | 92.2
